// data source = a melting point compilation (Tetko et al.)

Listed here: items and their measured melting point.

Task: I have this molecule here, CSc1nccn1-c1cccc(C(=O)O)c1 , and I need its recorded melting point.
Result: 225 to 227 °C

Task: I have this molecule here, O=C(O)c1cc(-c2ccccc2Cl)[nH]n1 , and I need its recorded melting point.
Result: 225 to 227 °C

Task: I have this molecule here, O=C(O)CSc1nc2cc(Cl)ccc2n1Cc1ccccc1 , and I need its recorded melting point.
Result: 155 to 157 °C

Task: I have this molecule here, NC1=NN(c2ccccc2)CC1 , and I need its recorded melting point.
Result: 168 to 170 °C

Task: I have this molecule here, COC(=O)COc1ccc(C(=O)O)cc1 , and I need its recorded melting point.
Result: 172 to 174 °C

Task: I have this molecule here, COC(=O)c1cc([N+](=O)[O-])ccc1N , and I need its recorded melting point.
Result: 163 to 165 °C

More entries:
Task: I have this molecule here, CC(C)(C(=O)O)n1cc([N+](=O)[O-])cn1 , and I need its recorded melting point.
Result: 121 to 123 °C

Task: I have this molecule here, O=C(O)Cn1c(=O)[nH]c2ccccc2c1=O , and I need its recorded melting point.
Result: 295 to 297 °C

Task: I have this molecule here, Nc1nnc(NS(=O)(=O)c2ccccc2)[nH]1 , and I need its recorded melting point.
Result: 303 to 305 °C

====

PARAMETER_MEASURED: melting point

Task: I have this compound here, CCOC(=O)C1CCCNC1=O (centres undefined) , and I need its recorded melting point.
Result: 80 to 82 °C

Task: I have this compound here, CC(C)C(=O)Nc1ccc(Cl)c(C(=O)O)c1 , and I need its recorded melting point.
Result: 229 to 231 °C

Task: I have this compound here, CCCCNc1c(N)n(Cc2ccccc2)c(=O)[nH]c1=O , and I need its recorded melting point.
Result: 117 to 119 °C

More entries:
Task: I have this compound here, Cc1occc1-c1cc(N)n(CCO)n1 , and I need its recorded melting point.
Result: 128 to 130 °C

Task: I have this compound here, OCc1nc2cc(C(F)(F)F)ccc2s1 , and I need its recorded melting point.
Result: 96 to 98 °C

Task: I have this compound here, Nc1cccc2c1C(=O)NC2=O , and I need its recorded melting point.
Result: 268 to 270 °C

====

Listed here: items and their measured melting point.

Example cases with answers are listed next.
Task: I have this compound here, [N-]=[N+]=Nc1ccc(Cl)cc1Cl , and I need its recorded melting point.
Result: 52 to 54 °C

Task: I have this compound here, NC(=O)c1ccc(C(=O)O)o1 , and I need its recorded melting point.
Result: 286 to 288 °C

Task: I have this compound here, [N-]=[N+]=Nc1cccc2cccnc12 , and I need its recorded melting point.
Result: 42 to 44 °C

More entries:
Task: I have this compound here, Cc1cc(N2CCNC(=O)C2)ccc1CN , and I need its recorded melting point.
Result: 154 to 156 °C

====

PARAMETER_MEASURED: melting point

Example cases with answers are listed next.
Task: I have this molecule here, COC(=O)c1sc(-c2ccccc2Cl)cc1N , and I need its recorded melting point.
Result: 109 to 111 °C

Task: I have this molecule here, CC(=O)NCc1cccc(C(=O)O)c1 , and I need its recorded melting point.
Result: 166 to 168 °C

Task: I have this molecule here, NCCCc1c[nH]c2ccccc12 , and I need its recorded melting point.
Result: 62 to 64 °C

Task: I have this molecule here, Sc1nc2ccccc2nc1S , and I need its recorded melting point.
Result: 345 to 347 °C

Task: I have this molecule here, Clc1nc(CN2CCOCC2)nc2scc(-c3ccccc3)c12 , and I need its recorded melting point.
Result: 82 to 84 °C

More entries:
Task: I have this molecule here, Cn1c(=O)c2cc(S(=O)(=O)Cl)cnc2n(C)c1=O , and I need its recorded melting point.
Result: 171 to 173 °C

Task: I have this molecule here, CCC(C)n1ncc2c(C(=O)O)cc(C)nc21 (centres undefined) , and I need its recorded melting point.
Result: 148 to 150 °C

Task: I have this molecule here, NNc1cccnc1Cl , and I need its recorded melting point.
Result: 149 to 151 °C

Task: I have this molecule here, Nc1ccn(-c2ccc(Cl)cc2Cl)n1 , and I need its recorded melting point.
Result: 114 to 116 °C

Task: I have this molecule here, CCC(=O)Nc1cccc(N)c1C , and I need its recorded melting point.
Result: 116 to 118 °C

Task: I have this molecule here, O=C(O)c1cc(Cl)ccc1-n1cnnn1 , and I need its recorded melting point.
Result: 198 to 200 °C

Task: I have this molecule here, Nc1ccccc1-c1ccncc1 , and I need its recorded melting point.
Result: 83 to 85 °C

Task: I have this molecule here, COC(C)C(N)=NO (centres undefined) , and I need its recorded melting point.
Result: 118 to 120 °C

Task: I have this molecule here, N#CCC1C(=O)Nc2ccccc21 (centres undefined) , and I need its recorded melting point.
Result: 161 to 163 °C
